Target: Glucocorticoid receptor (Homo sapiens)
Experiment: qHTS assay to identify small molecule antagonists of the glucocorticoid receptor (GR) signaling pathway (AID 720692)
Details: GR-bla HeLa, beta-lactamase FRET ratio, dexamethasone-stimulated, 18 h; series mostly up to 58.5 µM
Results filed as inconclusive are left out. Active and inactive are the calls of the source. Calls follow the shape of the dose curve; as a rule, active = well fitted inhibition curve with a large enough effect in the signal ratio in the repeat runs (not every such curve was filed as active); inconclusive = weak or mixed curves, or effect the other way; inactive = no such curve, though single readings can be large or run the other way; the % refers to the signal ratio.
One label from this list, please: Yes (active), No (inactive)

[[record]]
compound = "CCNc1nc(NC(C)C)nc(OC)n1"
label = "No"

[[record]]
compound = "CC1=C(C(=O)Nc2ccccc2)S(=O)(=O)CCO1"
label = "Yes"

[[record]]
compound = "c1cc2c(c(N3CCNCC3)c1)OCCO2"
label = "No"

[[record]]
compound = "CC(C)COP(=O)(OCC(C)C)OCC(C)C"
label = "No"

[[record]]
compound = "O=C(O)c1ccc2[nH]cc(CCCCN3CC=C(c4ccccc4)CC3)c2c1"
label = "No"


IN: Called result for COc1ccc2c(c1OC)CN1CCc3cc4c(cc3C1C2)OCO4 (stereo not drawn)
OUT: No
